Ref: ChEMBL document CHEMBL3112419

# method notes: Cytotoxicity against human CEM/0 cells
# Assay type: cell-based, CCRF-CEM
Sorting guide: entries reporting CC50 beneath 90 µM go in the yes pile, the rest go in the no pile.

• Cc1cn([C@H]2C=C[C@@H](CO)O2)c(=O)[nH]c1=O = no
• Nc1ccn([C@H]2CC[C@@H](CO)O2)c(=O)n1 = no
• Nc1ncnc2c1ncn2[C@H]1C=C[C@@H](CO)O1 = no
• CCCCCCCCCCCCCCCC(CC(=O)O)OP(=O)(O)OC[C@@H]1C=C[C@H](n2cc(C)c(=O)[nH]c2=O)O1 (stereo partly drawn) = no
• CCCCCCCCCCCCCCCCC(OP(=O)(O)OC[C@@H]1C=C[C@H](n2cnc3c(N)ncnc32)O1)C(=O)O (stereo partly drawn) = yes
• Cc1cn([C@H]2C[C@H](N=[N+]=[N-])[C@@H](CO)O2)c(=O)[nH]c1=O = no

---

# Test system: Human immunodeficiency virus 2
# method notes: Antiviral activity against HIV-2 ROD infected in human MT4 cells
# Format: functional, organism-based
# experimental parameters: Human immunodeficiency virus 2, ISOLATE ROD
test readout: log10 IC50 (log10 of the value in µM)

• CCCCCCCCCCCCCCCCC(OP(=O)(O)OC[C@@H]1CC[C@H](n2ccc(N)nc2=O)O1)C(=O)O (stereo partly drawn) = 0.76
• Nc1ccn([C@H]2CC[C@@H](CO)O2)c(=O)n1 [ZALCITABINE] = 0.28
• Cc1cn([C@H]2C[C@H](N=[N+]=[N-])[C@@H](CO)O2)c(=O)[nH]c1=O [ZIDOVUDINE] = -2.15
• CCCCCCCCCCCCCCCCC(OP(=O)(O)OC[C@@H]1C=C[C@H](n2cc(C)c(=O)[nH]c2=O)O1)C(=O)O (stereo partly drawn) = -0.40
• CCCCCCCCCCCCCCCCC(OP(=O)(O)OC[C@@H]1C=C[C@H](n2cnc3c(N)ncnc32)O1)C(=O)O (stereo partly drawn) = -0.96
• Cc1cn([C@H]2C=C[C@@H](CO)O2)c(=O)[nH]c1=O [STAVUDINE] = -0.40
• CCCCCCCCCCCCCCCC(CC(=O)O)OP(=O)(O)OC[C@@H]1C=C[C@H](n2cc(C)c(=O)[nH]c2=O)O1 (stereo partly drawn) = 1.21

---

# method notes: Cytotoxicity against human MT4 cells
# Assay type: cell-based
Entries and their CC50
test readout: CC50

• CCCCCCCCCCCCCCCCC(OP(=O)(O)OC[C@@H]1C=C[C@H](n2cnc3c(N)ncnc32)O1)C(=O)O (stereo partly drawn) = 97.8 µM
• CCCCCCCCCCCCCCCC(CC(=O)O)OP(=O)(O)OC[C@@H]1C=C[C@H](n2cc(C)c(=O)[nH]c2=O)O1 (stereo partly drawn) = > 198 µM
• CCCCCCCCCCCCCCCCC(OP(=O)(O)OC[C@@H]1CC[C@H](n2ccc(N)nc2=O)O1)C(=O)O (stereo partly drawn) = 94.1 µM
• Cc1cn([C@H]2C[C@H](N=[N+]=[N-])[C@@H](CO)O2)c(=O)[nH]c1=O = > 93.5 µM
• Nc1ccn([C@H]2CC[C@@H](CO)O2)c(=O)n1 = 325 µM
• Nc1ncnc2c1ncn2[C@H]1C=C[C@@H](CO)O1 = 278 µM
• Cc1cn([C@H]2C=C[C@@H](CO)O2)c(=O)[nH]c1=O = 327 µM
• CCCCCCCCCCCCCCCCC(OP(=O)(O)OC[C@@H]1C=C[C@H](n2cc(C)c(=O)[nH]c2=O)O1)C(=O)O (stereo partly drawn) = 64.7 µM
